target or test system: Serine/threonine-protein kinase Chk1 (Homo sapiens, UniProt O14757)
Sequence (O14757 whole entry): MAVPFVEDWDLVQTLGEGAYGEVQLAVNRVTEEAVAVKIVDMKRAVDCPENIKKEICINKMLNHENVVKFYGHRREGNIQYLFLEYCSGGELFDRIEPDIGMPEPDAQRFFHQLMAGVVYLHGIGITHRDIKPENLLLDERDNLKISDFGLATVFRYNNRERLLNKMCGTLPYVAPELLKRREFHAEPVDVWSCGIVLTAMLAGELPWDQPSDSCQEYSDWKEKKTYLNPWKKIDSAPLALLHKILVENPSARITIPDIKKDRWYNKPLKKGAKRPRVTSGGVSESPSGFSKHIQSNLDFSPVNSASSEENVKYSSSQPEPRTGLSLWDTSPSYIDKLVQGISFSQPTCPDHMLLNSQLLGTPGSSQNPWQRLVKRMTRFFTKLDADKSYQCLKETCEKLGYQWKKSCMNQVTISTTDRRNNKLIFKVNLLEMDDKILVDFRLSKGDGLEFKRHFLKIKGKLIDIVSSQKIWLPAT
IC50 values for the molecules below.
Answer with a number only, understood to be in nM.

Sample answers from the record:
test smiles	quantity name	unit of measure	obs value
NCCc1cc2cc[nH]c(=O)c2c2cc(-c3ccc(CN4CCOCC4)cc3)ccc12	IC50	nM	0.6
NCCCc1cc2c(-c3ccc(Cl)cc3)c[nH]c(=O)c2c2cc(-c3cn[nH]c3)ccc12	IC50	nM	1.2
NCCCc1cc2c(-c3ccc(Cl)cc3Cl)c[nH]c(=O)c2c2cc(-c3cn[nH]c3)ccc12	IC50	nM	1.2
NCCCc1cc2cc[nH]c(=O)c2c2cc(Br)ccc12	IC50	nM	17

# ---- query molecule ----
// Input: NCCc1cc2cc[nH]c(=O)c2c2cc(-c3ccn[nH]3)ccc12 . Output its IC50 only.
2.5

----------
Reported pIC50 values, Serine/threonine-protein kinase Chk1 (Homo sapiens).
Kindly note that pIC50 refers to -log10 of the concentration in mol/L and answer with the value alone.

test smiles	pIC50
NCCCc1cc2cc[nH]c(=O)c2c2cc(-c3cn[nH]c3)ccc12	8.46
N#Cc1cc2cc[nH]c(=O)c2c2cc(Br)ccc12	6.40
N#Cc1cc2cc[nH]c(=O)c2c2cc(Cl)ccc12	5.97

# ---- query molecule ----
// Input: O=c1[nH]ccc2c3[nH]c(-c4cccnc4)nc3c3ccc(F)cc3c12 . Output its pIC50 only.
6.96
